- Target Or Test System: T1, Human cKIT D1-5 (human cKIT tr. variant 2, residues 26-520, C-terminal His tag) (human, UniProt P10721 26-524)
- T1 construct: also called human cKIT ECD; Human c-Kit ECD
- T1 sequence (P10721 other isoform, or with tags, fused parts or gaps mutant limits assumed): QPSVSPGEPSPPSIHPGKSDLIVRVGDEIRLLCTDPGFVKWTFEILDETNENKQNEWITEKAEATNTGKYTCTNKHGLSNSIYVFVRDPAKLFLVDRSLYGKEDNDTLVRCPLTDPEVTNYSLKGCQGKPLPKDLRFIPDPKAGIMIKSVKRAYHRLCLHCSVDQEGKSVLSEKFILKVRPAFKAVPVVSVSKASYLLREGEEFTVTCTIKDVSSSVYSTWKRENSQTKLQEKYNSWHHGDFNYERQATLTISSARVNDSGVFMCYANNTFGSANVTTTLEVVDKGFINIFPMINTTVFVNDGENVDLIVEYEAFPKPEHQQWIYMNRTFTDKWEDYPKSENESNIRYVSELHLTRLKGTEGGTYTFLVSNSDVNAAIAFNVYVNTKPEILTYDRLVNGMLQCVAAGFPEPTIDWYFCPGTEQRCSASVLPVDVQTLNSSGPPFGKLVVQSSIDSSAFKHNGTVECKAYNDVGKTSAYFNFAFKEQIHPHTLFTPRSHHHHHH
- Method Summary: SPR (Biacore 2000), antibody captured on anti-human Fc, cKIT ECD as analyte, 25 C, 1:1 fit
For each entry below, report its pKd value.
Numbers only, as −log10 of the molar value.

Check out these entries, answers already filled in.
NEG085 (antibody, human IgG1, kappa, V domains shown, Humanized, optimized variant of 9P3; human IgG1 kappa; also called unconjugated NEG085) VH: EVQLVESGGGLVQPGGSLRLSCAASGFAFSGYYMAWVRQAPGKGLEWVANINYPGSSTYYLDSVKGRFTISRDNAKNSLYLQMNSLRAEDTAVYYCARGDYYGTTYWYFDVWGQGTTVTVSS VL: DIQMTQSPSSLSASVGDRVTITCRASQSISSYLNWYQQKPGKAPKLLIYYTSRLQSGVPSRFSGSGSGTDFTLTISSLQPEDFATYYCQQGRRLWSFGGGTKVEIKR :: 8.08
NEG086 (antibody, human IgG1, kappa, V domains shown, Humanized, optimized variant of 9P3; human IgG1 kappa) VH: EVQLVESGGGLVQPGGSLRLSCAASGFTFSDYYMAWVRQAPGKGLEWVANINQIAGSTYYVDSVQGRFTISRDNAKNSLYLQMNSLRAEDTAVYYCARGDYYGTTYWYFDVWGQGTTVTVSS VL: DIQMTQSPSSLSASVGDRVTITCRASQSISSYLNWYQQKPGKAPKLLIYYTSRLQSGVPSRFSGSGSGTDFTLTISSLQPEDFATYYCQQGRRLWSFGGGTKVEIKR :: 8.84

Any idea what pKd was measured for NEG087 (antibody, human IgG1, kappa, V domains shown, Humanized, optimized variant of 9P3; human IgG1 kappa) VH: EVQLVESGGGLVQPGGSLRLSCAASGFTFSDYYMAWVRQAPGKGLEWVASINQNTGSTYYLDSVRGRFTISRDNAKNSLYLQMNSLRAEDTAVYYCARGDYYGTTYWYFDVWGQGTTVTVSS VL: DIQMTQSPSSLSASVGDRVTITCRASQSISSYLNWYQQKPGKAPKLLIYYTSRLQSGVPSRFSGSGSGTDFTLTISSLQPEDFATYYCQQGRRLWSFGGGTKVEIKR ?
8.95
